Measured inhibition accompanies every entry in the list below.
target: Integrin beta-1 (Homo sapiens) + Integrin alpha-4 (Homo sapiens) (UniProt P13612+P05556); test: alpha4beta1 integrin LIBS antibody binding reduction – U937 cells, HUTS-21 mAb, flow cytometry, validation set, VLA-4 allosteric modulator project, pilot screen (AID 2674); details: HUTS-21 LIBS mAb binding, at 6.7 µM, stronger effect = higher value, binding induced by LDV ligand;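 note: antibody binding induced by the VLA-4 ligand LDV present at three times its Kd; 0% = LDV ligand with antibody and no compound and 100% = antibody without LDV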
Sequence (P05556 whole entry, looked up): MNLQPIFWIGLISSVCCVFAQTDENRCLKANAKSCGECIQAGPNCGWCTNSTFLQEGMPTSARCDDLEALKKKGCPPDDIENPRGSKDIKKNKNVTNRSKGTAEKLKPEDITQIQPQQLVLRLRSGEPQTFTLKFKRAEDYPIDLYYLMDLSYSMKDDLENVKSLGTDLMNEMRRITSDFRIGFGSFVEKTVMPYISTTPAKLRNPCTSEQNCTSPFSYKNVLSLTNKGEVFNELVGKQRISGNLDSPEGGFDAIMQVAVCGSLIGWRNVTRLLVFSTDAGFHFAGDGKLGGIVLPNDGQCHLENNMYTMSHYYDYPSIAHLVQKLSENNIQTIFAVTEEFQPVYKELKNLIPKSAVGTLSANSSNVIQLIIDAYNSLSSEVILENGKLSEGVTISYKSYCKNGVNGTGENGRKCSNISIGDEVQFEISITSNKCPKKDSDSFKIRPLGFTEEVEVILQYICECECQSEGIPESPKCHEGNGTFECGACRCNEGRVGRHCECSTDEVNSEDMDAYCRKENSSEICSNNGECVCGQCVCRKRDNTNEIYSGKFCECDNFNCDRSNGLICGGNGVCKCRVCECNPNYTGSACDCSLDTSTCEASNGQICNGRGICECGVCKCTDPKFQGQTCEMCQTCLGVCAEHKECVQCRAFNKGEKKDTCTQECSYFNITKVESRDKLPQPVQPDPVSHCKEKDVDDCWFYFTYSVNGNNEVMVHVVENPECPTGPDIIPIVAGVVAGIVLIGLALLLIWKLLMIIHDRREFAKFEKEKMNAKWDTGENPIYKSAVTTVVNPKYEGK
Sequence (P13612 whole entry, looked up): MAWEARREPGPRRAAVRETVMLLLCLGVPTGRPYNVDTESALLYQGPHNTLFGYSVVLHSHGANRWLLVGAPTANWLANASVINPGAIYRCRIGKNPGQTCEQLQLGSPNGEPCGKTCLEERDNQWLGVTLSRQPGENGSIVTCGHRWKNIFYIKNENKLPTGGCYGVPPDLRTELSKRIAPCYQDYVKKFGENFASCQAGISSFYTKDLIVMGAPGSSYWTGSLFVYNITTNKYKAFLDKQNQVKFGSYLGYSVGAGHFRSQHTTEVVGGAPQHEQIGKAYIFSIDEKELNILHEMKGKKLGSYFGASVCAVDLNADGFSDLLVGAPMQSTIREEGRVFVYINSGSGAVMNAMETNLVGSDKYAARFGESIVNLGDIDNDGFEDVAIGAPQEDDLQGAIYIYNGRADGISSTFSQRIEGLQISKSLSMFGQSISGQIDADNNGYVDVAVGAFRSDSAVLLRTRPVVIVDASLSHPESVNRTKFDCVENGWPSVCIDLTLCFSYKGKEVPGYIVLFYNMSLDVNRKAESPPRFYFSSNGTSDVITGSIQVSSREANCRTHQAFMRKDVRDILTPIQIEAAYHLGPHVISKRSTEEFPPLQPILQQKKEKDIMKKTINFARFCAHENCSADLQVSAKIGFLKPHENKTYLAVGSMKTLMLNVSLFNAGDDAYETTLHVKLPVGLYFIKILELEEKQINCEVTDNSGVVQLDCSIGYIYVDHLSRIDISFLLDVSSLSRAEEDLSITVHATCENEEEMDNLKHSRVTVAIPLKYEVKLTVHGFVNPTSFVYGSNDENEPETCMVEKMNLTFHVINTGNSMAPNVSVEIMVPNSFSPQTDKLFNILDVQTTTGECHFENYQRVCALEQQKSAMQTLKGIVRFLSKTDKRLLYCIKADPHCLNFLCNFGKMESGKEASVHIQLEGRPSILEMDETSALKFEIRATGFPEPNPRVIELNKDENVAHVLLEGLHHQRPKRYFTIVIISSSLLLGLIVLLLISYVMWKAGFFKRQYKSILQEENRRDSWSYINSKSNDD

molecule: COc1ccc(C2=CC(=O)C=CC2=O)cc1
u: %
inhibition: 4.84
--
molecule: CCCCCCC(=O)N(O)C1CC(=O)N(Cc2ccccc2)C1=O (centres undefined)
u: %
inhibition: -0.45
--
molecule: CC1(C)C(=O)OC(/C=C\c2ccccc2)C(C)(C)C1=O (centres undefined)
u: %
inhibition: 1.44
--
molecule: C#C[C@]1(O)CC[C@H]2[C@@H]3CCc4cc(O)ccc4[C@H]3CC[C@@]21C
u: %
inhibition: 7.43
--
molecule: CC(=O)[C@@]1(O)CC[C@H]2[C@@H]3C[C@H](C)C4=CC(=O)C=C[C@]4(C)[C@@]3(F)[C@@H](O)C[C@@]21C
u: %
inhibition: 2.58
--
molecule: C=CC1=C(C(=O)O)N2C(=O)C(NC(=O)Cc3ccccc3)C2SC1 (centres undefined)
u: %
inhibition: 13.2
--
molecule: O=C(CCc1c[nH]c2ccccc12)NCc1ccco1
u: %
inhibition: 3.99
--
molecule: Cc1c(O)c(=O)ccn1C
u: %
inhibition: 6.46
--
molecule: C[C@]12CC[C@H]3[C@@H](CCC4=CC(=O)CC[C@@]43C)[C@@H]1CC[C@@H]2C(=O)CO
u: %
inhibition: -13.9
--
molecule: CCOC(=O)c1ccc(N2C(=O)C(CC(=O)NC)N(CCc3ccc(OC)c(OC)c3)C2=S)cc1 (centres undefined)
u: %
inhibition: 6.85
--
molecule: CSc1cccc(NC(=O)/C=C/c2ccccc2)c1
u: %
inhibition: 15.2
--
molecule: O=C1[C@@H]2CSCN2C(=O)CN1Cc1ccc(F)cc1
u: %
inhibition: -3.16
--
molecule: COc1ccc(C(=O)O)cc1F
u: %
inhibition: -1.09
--
molecule: COc1ccc(NC2=C(Cl)C(=O)N(c3ccccc3)C2=O)c(OC)c1
u: %
inhibition: -1.09
--
molecule: COc1ccccc1C(=O)Oc1ccc2c(c1)O/C(=C\c1ccncc1)C2=O
u: %
inhibition: -58.2
--
molecule: O=C(c1cccc2ccccc12)C1CCCN(C(=O)CCN2CCCO2)C1 (centres undefined)
u: %
inhibition: 7.85
--
molecule: Cc1cccc(-c2ncc(CN3CCN(CC(C)C)C(CCO)C3)cn2)c1 (centres undefined)
u: %
inhibition: -3.57
--
molecule: CCSC(SCC)[C@H](O)[C@@H](O)[C@H](O)[C@H](O)CO
u: %
inhibition: 6.46
--
molecule: COc1ccc2[nH]c3c(c2c1)CCNC3C1CC=C(C)CC1 (centres undefined)
u: %
inhibition: 7.43
--
molecule: Nc1ccc2nc(Cc3ccccc3)[nH]c2c1
u: %
inhibition: 3.55
--
molecule: Cc1ccc(S(=O)(=O)Oc2ccccc2/C=N/N=C(N)N)cc1
u: %
inhibition: 12.6
--
molecule: Cc1ccc(/C(=C\CN2CCCC2)c2ccccn2)cc1
u: %
inhibition: 12.3
--
molecule: COc1ccc2nc(S(=O)Cc3ncc(C)c(OC)c3C)[nH]c2c1 (centres undefined)
u: %
inhibition: -13.2
--
molecule: CCCCCCCCNC(C)C(O)c1ccc(SC(C)C)cc1 (centres undefined)
u: %
inhibition: -12
--
molecule: O=C1C(O)CC2c3ccccc3CC3(CCCC3)N12 (centres undefined)
u: %
inhibition: -0.43
--
molecule: CC(C)(C)n1c(=O)[nH]c2c(c1=O)CCC2
u: %
inhibition: 8.25
--
molecule: COc1ccc(C(=O)CC2OC(=O)c3c2ccc(OC)c3OC)cc1 (centres undefined)
u: %
inhibition: 4.73
--
molecule: O=C(/C=C/c1ccc(F)cc1)NC(=S)N1CCCCC1c1cccnc1 (centres undefined)
u: %
inhibition: -3.67
--
molecule: Cc1ccccc1NC(=O)C1(C)Cc2ccccc2C(=O)O1 (centres undefined)
u: %
inhibition: 10.5
--
molecule: O=C(CCCn1c(=O)oc2ccccc21)N1CCN(c2ccc(F)cc2)CC1
u: %
inhibition: -1.79
--
molecule: CC(=O)N1CCN(c2ccc(OC[C@H]3CO[C@](Cn4ccnc4)(c4ccc(Cl)cc4Cl)O3)cc2)CC1
u: %
inhibition: 4.27
--
molecule: COc1cc(OC)c(-c2nc3cnccc3n2C)cc1OC
u: %
inhibition: -4.6
--
molecule: CCC1(c2ccccc2)NC(=S)N(c2ccc(C)c(C)c2)N1 (centres undefined)
u: %
inhibition: 5.69
--
molecule: O=C(CSCc1ccccc1)NCCCN1CCOCC1
u: %
inhibition: 12.3
--
molecule: CCN(CCCCCN(C)C)Cc1cc2ccccc2o1
u: %
inhibition: -0.43
--
molecule: CCc1oc2ccccc2c1C(=O)c1cc(Br)c(O)c(Br)c1
u: %
inhibition: 7.43
--
molecule: Nc1cc(-c2ccncc2)c[nH]c1=O
u: %
inhibition: -11.8
--
molecule: O=C(Nc1ccc(N2CCOCC2)cc1)c1ccc(-c2ccccc2[N+](=O)[O-])o1
u: %
inhibition: 3.98
--
molecule: CCO/C([O-])=N/c1c[n+](N2CCOCC2)no1
u: %
inhibition: -18.5
--
molecule: COC1CCN(Cc2cn(Cc3ccccc3)nc2-c2cc3ccccc3o2)CC1
u: %
inhibition: 22.4
--
molecule: COc1cc2c(cc1OC)C1(CCCC1)CNC2c1cccc([N+](=O)[O-])c1 (centres undefined)
u: %
inhibition: -57.8
--
molecule: CC[C@]1(O)CC2CN(CCc3c([nH]c4ccccc34)[C@@](C(=O)OC)(c3cc4c(cc3OC)N(C=O)[C@H]3[C@@](O)(C(=O)OC)[C@H](OC(C)=O)[C@]5(CC)C=CCN6CC[C@]43[C@@H]65)C2)C1 (some centres undefined)
u: %
inhibition: 48.7
--
molecule: COc1ccccc1NC(=O)N1CCc2[nH]c3ccc(Cl)cc3c2C1
u: %
inhibition: -11.8
--
molecule: COc1ccc(CCN(C)CCCC(C#N)(c2cc(OC)c(OC)c(OC)c2)C(C)C)cc1OC (centres undefined)
u: %
inhibition: 11
